system: GABARAPL2, P60520
Sequence (P60520 whole entry, the tested form may be a part): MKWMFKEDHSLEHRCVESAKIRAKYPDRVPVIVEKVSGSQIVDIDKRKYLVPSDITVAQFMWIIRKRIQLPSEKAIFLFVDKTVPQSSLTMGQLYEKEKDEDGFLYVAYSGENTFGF
procedureDetails: median log2 fold change of GCK-ALFA target abundance (FLAG IP / Myc IP barcode read proportion) (log2 ratio); each designed protein is fused to an ALFA-tag nanobody in HEK293 cells to bring the named protein to FLAG-tagged glucokinase (GCK); Myc marks an untargeted standard; higher = target protein stabilised (more abundant)
measurementConditions: target protein: 3xFLAG-MCP-GCK-ALFA reporter; HEK293 landing pad (RPLP)
measure: median log2 fold change

stdin: Quick check: median log2 fold change of GBRAPL2_128_7287 (protein) MKLVTIDITIENEEEYELAEKVLEELARRGSPAVADLADAALDMVRSAKEDGYNENVAVTDILSPEDAAELKALLEELAKEYGEEKVNRIIKLEVDDIPP ?
stdout: -0.633

stdin: Now consider GBRAPL2_54_7386 (protein) MKKVNITIDFVAEGDPETLAKVEEVAEKEIEKMEEELKEKYGAETERSVEREDGVLTVTVDVTVPEEAVDDVIDLALETAERISKETGVKVSVVIGAEEL and answer again.
stdout: -0.458
